Each entry below lists one item and its recorded growth value.
System: HCC-2998 colon
ASSAY REMARKS: NCI-60 one-dose screen, 48 h (100 = growth as untreated, 0 = no growth, -100 = all killed)
STATED CONDITIONS: 10 µM
The panel holds about 83,000 compounds, 20% with a hit somewhere; the sample as a whole holds those more often. Activity calls are given as the source filed them. How the source made its calls: active means growth percent below 10; inactive means the rest.

COMPOUND: NC(N)=N/N=C(\c1ccccc1)C(O)c1ccccc1 (stereo not drawn)
growth: 100% (inactive)
//
COMPOUND: Nc1ncnc2c1ncn2C1(CO)OCC(O)C(O)C1O (stereo not drawn)
growth: 101% (inactive)
//
COMPOUND: Cc1cc(SC#N)cc(C(C)(C)C)c1O
growth: 109% (inactive)
